testTarget: Wee1-like protein kinase (Homo sapiens)
Sequence (P30291 whole entry): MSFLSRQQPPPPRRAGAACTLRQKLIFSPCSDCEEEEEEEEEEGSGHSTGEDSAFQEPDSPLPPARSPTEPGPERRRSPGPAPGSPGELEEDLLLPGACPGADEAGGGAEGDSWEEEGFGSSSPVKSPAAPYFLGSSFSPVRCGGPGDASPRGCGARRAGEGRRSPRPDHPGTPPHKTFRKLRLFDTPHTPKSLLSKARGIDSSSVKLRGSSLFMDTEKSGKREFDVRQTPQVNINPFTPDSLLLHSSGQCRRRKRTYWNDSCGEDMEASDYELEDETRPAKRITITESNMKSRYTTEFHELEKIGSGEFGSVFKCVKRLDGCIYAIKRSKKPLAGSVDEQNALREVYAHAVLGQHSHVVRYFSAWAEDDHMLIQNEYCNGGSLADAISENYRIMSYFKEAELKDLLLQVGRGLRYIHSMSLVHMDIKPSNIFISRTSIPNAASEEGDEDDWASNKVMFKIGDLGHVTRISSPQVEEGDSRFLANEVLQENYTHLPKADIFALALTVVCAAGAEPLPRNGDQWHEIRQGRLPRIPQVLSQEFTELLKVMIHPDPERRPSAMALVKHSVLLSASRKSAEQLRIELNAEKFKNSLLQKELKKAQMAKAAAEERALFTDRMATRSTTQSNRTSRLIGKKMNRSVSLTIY
testSummary: Inhibition of recombinant Wee1 (unknown origin) by TR-FRET assay
testReadout: pIC50
Give bare numbers, as −log10 of the molar value.

Prompt: What value of pIC50 has been recorded for this entry: C=CCn1c(=O)c2cnc(Nc3ccc(CCN(C)C)cc3)nc2n1-c1cccc(C(C)(C)O)n1
Completion: 8.77

* * *

testTarget: Serine/threonine-protein kinase Chk1 (Homo sapiens, UniProt O14757)
Sequence (O14757 whole entry): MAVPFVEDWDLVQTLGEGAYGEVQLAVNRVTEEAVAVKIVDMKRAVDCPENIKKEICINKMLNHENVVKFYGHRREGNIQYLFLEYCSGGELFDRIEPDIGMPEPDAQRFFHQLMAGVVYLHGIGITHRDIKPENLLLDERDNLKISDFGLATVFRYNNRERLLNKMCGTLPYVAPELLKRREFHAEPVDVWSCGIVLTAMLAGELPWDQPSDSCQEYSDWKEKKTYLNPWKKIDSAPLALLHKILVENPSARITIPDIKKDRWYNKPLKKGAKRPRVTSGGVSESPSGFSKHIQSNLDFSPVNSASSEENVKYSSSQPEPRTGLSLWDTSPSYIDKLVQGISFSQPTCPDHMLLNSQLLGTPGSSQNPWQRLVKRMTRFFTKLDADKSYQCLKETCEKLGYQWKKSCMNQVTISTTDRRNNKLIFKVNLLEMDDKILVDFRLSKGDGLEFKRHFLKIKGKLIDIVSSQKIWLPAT
testReadout: IC50

Prompt: Bench note: what IC50 did CCN(CC)CCOc1ccc(Nc2ncc3cc(-c4c(Cl)cccc4Cl)c(=O)n(C)c3n2)cc1 show?
Completion: 0.072 µM
